# Test system: NCI-H460 lung
# ASSAY_INFO: NCI-60 one-dose screen, 48 h (100 = growth as untreated, 0 = no growth, -100 = all killed)
# SETTINGS: 10 µM unless noted
Compounds without any hit were thinned out: in the full panel of roughly 83,000, 20% have a hit. Activity calls are given as the source filed them. The calls were made as follows: active = growth percent below 10; inactive = the rest.
RESULT_TYPE: growth

Please supply growth for each of the following items, keeping them in order.
1. O=C(CN1C(=O)/C(=C/c2ccco2)SC1=S)NCCc1c[nH]c2ccc(F)cc12
2. C/C(=N\O)C(=O)NCCCCCC(=O)Nc1ccccc1
3. COc1cc2ncnc(Nc3ccc(F)c(Cl)c3)c2cc1OCC(=O)N1CCN(c2ccc(F)cc2)CC1
4. CCCC(O)Cn1ncc(C(=O)OCC)c1NC(=O)NCc1cccc(F)c1 (stereo unspecified)

1: 103% (inactive); 2: 111% (inactive); 3: 101% (inactive); 4: 107% (inactive)

---

# System: CCRF-CEM leukemia
# ASSAY_INFO: NCI-60 one-dose screen, 48 h
# SETTINGS: 10 µM unless noted
About 83,000 compounds went through this panel and 20% of them were active in at least one assay; those are over-represented in the sample as a whole. Active and inactive are the calls of the source. Rule for the calls: active = growth percent below 10; inactive = the rest.
Output constraint: value belongs to yes (active), no (inactive)

Before answering, review these 5 worked examples.
O=C1c2cc3c(cc2-c2c1c1ccc(Cl)cc1c(=O)n2C[C@H](O)CO)OCO3: yes
Cc1c2cnccc2c(C)c2c1c1cc(C3OCCCO3)ccc1n2C: yes
O=C(CSc1nc2ccc([N+](=O)[O-])cc2[nH]1)Nc1cccc([N+](=O)[O-])c1: no
COC(c1ccc2ccccc2c1)C(C)C(F)F (stereo not drawn): no
O=C(O)c1cccc(N/C=C/C(=O)c2cc3cc(Br)ccc3oc2=O)c1: no

Record lookup: outcome of this test for CCOC(=O)c1c(-c2ccc(Cl)cc2)c(C#N)c2c(C#N)c(N)nn2c1N ?
no

Record lookup: outcome of this test for COc1cc(/C=C2\CN(S(=O)(=O)c3ccc(C)cc3)C/C(=C\c3cc(CN4CCCCC4)c(O)c(OC)c3)C2=O)cc(CN2CCCCC2)c1O ?
yes

Record lookup: outcome of this test for CCCn1c(=S)sc2c1nc(C)n1c(Nc3ccccc3)nnc21 ?
no

Record lookup: outcome of this test for O=C(O)CCCn1c(SCc2c(Cl)cccc2Cl)nc2ccsc2c1=O ?
no

Record lookup: outcome of this test for Fc1ccc(COc2ccc(Nc3ncnc4sc5c(c34)CCCC5)cc2)cc1 ?
no

Record lookup: outcome of this test for Nc1c(C(=O)O)cc(Cl)cc1[N+](=O)[O-] ?
no

Record lookup: outcome of this test for CCOC(=O)c1c(C)nc2ccccc2c1/C=C/c1ccc(OC)cc1 ?
no

Record lookup: outcome of this test for N#Cc1c(Nc2ccc(F)cc2)n[nH]c1-c1cccs1 ?
no

Record lookup: outcome of this test for CCCC(O)Cn1ncc(C(=O)OCC)c1NC(=O)NCc1cccc(F)c1 (stereo not drawn) ?
no

---

Can you tell me growth for the items I'm about to list?
# Tested on: NCI-H522 lung
# ASSAY_INFO: NCI-60 one-dose screen, 48 h (100 = growth as untreated, 0 = no growth, -100 = all killed)
# SETTINGS: 10 µM unless noted
The panel holds about 83,000 compounds, 20% with a hit somewhere; the sample as a whole holds those more often. Calls of active or inactive are those of the source. The calls were made as follows: active = growth percent below 10; inactive = the rest.

CN(Cc1cnc2nc(N)nc(N)c2n1)c1c(Cl)cc(C(=O)NC(CCC(=O)O)C(=O)O)cc1Cl (stereo unspecified): 24.5% (inactive)
Nc1ccc([N+](=O)[O-])cc1N=C/C=C/c1ccccc1: 10.8% (inactive)
C=NNc1ccccc1: 73.7% (inactive)
CCN1C(=S)N(CC)C2C1NC(=S)N2/N=C/C=C/c1ccccc1OC (stereo unspecified): -11.3% (active)

Please supply growth for each of the following items, keeping them in order.
1. Brc1ccc(-c2cnc3nonc3n2)cc1
2. Cn1ccnc1C(=O)/C=C/c1ccc(C(=O)Nc2ccc(F)cc2)cc1
3. CC1=C(C(=O)n2c3ccccc3c3ccccc32)C(c2cccc([N+](=O)[O-])c2)C(C(=O)n2c3ccccc3c3ccccc32)=C(C)N1

1: 66% (inactive); 2: 7.55% (active); 3: 101% (inactive)
